target: Somatostatin receptor type 5 (Homo sapiens, UniProt P35346); assay: Inhibition of 125I-[Leu8,D-Trp22,Tyr25]SRIF-28 binding to human somatostatin receptor type 5
Sequence (P35346 whole entry): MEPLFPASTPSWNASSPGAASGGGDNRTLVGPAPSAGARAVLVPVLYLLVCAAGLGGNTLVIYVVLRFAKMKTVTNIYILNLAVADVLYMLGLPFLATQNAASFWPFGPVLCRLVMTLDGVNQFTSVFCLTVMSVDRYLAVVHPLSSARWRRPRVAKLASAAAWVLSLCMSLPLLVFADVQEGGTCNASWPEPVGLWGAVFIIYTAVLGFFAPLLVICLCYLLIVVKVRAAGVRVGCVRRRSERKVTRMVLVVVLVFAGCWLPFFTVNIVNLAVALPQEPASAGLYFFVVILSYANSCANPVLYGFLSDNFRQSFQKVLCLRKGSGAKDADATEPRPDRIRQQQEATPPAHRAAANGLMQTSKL
pIC50: −log10 of the molar value.
measured_parameter: pIC50

Record excerpt, results attached:
1) C[C@@H](O)[C@@H]1NC(=O)[C@H](CCCCN)NC(=O)[C@@H](Cc2c[nH]c3ccccc23)NC(=O)[C@H](Cc2ccccc2)NC(=O)[C@H](Cc2ccccc2)NC(=O)[C@H](CC(N)=O)NC(=O)[C@@H](N)CSSC[C@@H](C(=O)O)NC(=O)[C@H](Cc2ccccc2)NC1=O	7.51
2) CC(C)NCc1ccc(C[C@H]2C(=O)N[C@@H]([C@@H](C)O)C(=O)N[C@@H](Cc3ccc(O)c(I)c3)C(=O)N[C@@H]3CCCCCCNC(=O)CC[C@H](NC(=O)[C@H](Cc4ccccc4)NC(=O)[C@H](CCCCN)NC(=O)[C@@H](N)CSSC[C@@H](C(=O)O)NC(=O)[C@H](CO)NC3=O)C(=O)N[C@H](Cc3c[nH]c4ccccc34)C(=O)N2C)cc1	< 6.00

Shifting focus to the molecule that follows.
(Q) Please look up its pIC50: `CC(C)NCc1ccc(C[C@H]2C(=O)N[C@@H]([C@@H](C)O)C(=O)N[C@@H](Cc3ccc(O)c(I)c3)C(=O)N[C@H]3CCCCNC(=O)CC[C@H](NC(=O)[C@H](Cc4ccccc4)NC(=O)[C@H](CCCCN)NC(=O)[C@@H](N)CSSC[C@@H](C(=O)O)NC(=O)[C@H](CO)NC3=O)C(=O)N[C@H](Cc3c[nH]c4ccccc34)C(=O)N2C)cc1`
(A) < 6.00

---

biological target: UniProtKB P30874
Sequence (P30874 whole entry): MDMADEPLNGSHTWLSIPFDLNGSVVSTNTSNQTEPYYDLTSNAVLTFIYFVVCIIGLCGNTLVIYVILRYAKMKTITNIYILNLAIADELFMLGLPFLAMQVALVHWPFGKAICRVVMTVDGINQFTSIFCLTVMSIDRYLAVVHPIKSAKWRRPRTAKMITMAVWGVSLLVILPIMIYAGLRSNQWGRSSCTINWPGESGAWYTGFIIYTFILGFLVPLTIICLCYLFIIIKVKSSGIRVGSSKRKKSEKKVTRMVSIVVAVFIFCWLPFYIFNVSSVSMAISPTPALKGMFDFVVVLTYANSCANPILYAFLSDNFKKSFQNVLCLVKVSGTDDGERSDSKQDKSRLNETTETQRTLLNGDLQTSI
pIC50: −log10 of the molar value.
Recorded pIC50 by entry

1. C[C@@H](O)[C@@H]1NC(=O)[C@H](Cc2ccccc2)NC(=O)[C@H]([C@@H](C)O)NC(=O)[C@H](CCCCN)NC(=O)[C@@H](Cc2c[nH]c3ccccc23)NC(=O)[C@H](Cc2ccccc2)NC(=O)[C@H](Cc2ccccc2)NC(=O)[C@@H](N)CSSC[C@@H](C(=O)O)NC(=O)[C@H](CO)NC1=O	7.55

(Q) // lookup pIC50 for `CC(C)NCc1ccc(C[C@@H]2NC(=O)[C@@H](Cc3c[nH]c4ccccc34)NC(=O)[C@H](Cc3ccccc3)NC(=O)[C@H]3CCC(=O)NCC[C@@H](NC(=O)[C@H]([C@@H](C)O)NC2=O)C(=O)N[C@@H]([C@@H](C)O)C(=O)N[C@@H](CO)C(=O)N[C@H](C(=O)O)CSSC[C@H](NC(=O)[C@@H](N)Cc2ccc(O)cc2)C(=O)N[C@@H](CCCCN)C(=O)N3)cc1`
(A) < 6.00

(Q) And the next one, `CC(C)NCc1ccc(C[C@@H]2NC(=O)[C@@H](Cc3c[nH]c4ccccc34)NC(=O)[C@@H]3CCC(=O)NCCCC[C@H](NC(=O)[C@H](Cc4ccccc4)NC(=O)[C@H]([C@@H](C)O)NC2=O)C(=O)N[C@@H](CO)C(=O)N[C@H](C(N)=O)CSSC[C@H](NC(=O)[C@@H](N)Cc2ccc(O)cc2)C(=O)N[C@@H](CCCCN)C(=O)N[C@@H](Cc2ccccc2)C(=O)N3)cc1` ?
(A) < 6.00

(Q) # repeat for `CC(C)NCc1ccc(C[C@@H]2NC(=O)[C@@H](Cc3c[nH]c4ccccc34)NC(=O)[C@@H]3CCC(=O)NCCCCCC[C@@H](NC(=O)[C@H](Cc4ccccc4)NC(=O)[C@H]([C@@H](C)O)NC2=O)C(=O)N[C@@H](CO)C(=O)N[C@H](C(=O)O)CSSC[C@H](NC(=O)[C@@H](N)Cc2ccc(O)cc2)C(=O)N[C@@H](CCCCN)C(=O)N[C@@H](Cc2ccccc2)C(=O)N3)cc1`
(A) < 6.00

---

biological target: Somatostatin receptor type 1 (Homo sapiens, UniProt P30872)
Sequence (P30872 whole entry): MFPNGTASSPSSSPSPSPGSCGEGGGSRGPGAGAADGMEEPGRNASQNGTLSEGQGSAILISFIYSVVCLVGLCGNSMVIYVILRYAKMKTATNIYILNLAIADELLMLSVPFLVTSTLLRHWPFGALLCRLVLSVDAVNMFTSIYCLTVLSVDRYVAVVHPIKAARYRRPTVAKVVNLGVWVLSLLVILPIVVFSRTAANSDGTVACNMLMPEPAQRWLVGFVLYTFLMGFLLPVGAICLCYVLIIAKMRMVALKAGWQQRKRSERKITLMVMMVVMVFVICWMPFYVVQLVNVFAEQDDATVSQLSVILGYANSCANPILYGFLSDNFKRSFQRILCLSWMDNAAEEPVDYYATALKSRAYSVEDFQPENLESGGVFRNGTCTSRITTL
pIC50: −log10 of the molar value.
Returns one of 1.0 or 0.0; 1.0 when pIC50 is >= 7.

Record excerpt, results attached:
1) CC(C)NCc1ccc(C[C@@H]2NC(=O)[C@@H](Cc3c[nH]c4ccccc34)NC(=O)[C@@H]3CCC(=O)NCCCC[C@H](NC(=O)[C@H](Cc4ccccc4)NC(=O)[C@H]([C@@H](C)O)NC2=O)C(=O)N[C@@H](CO)C(=O)N[C@H](C(=O)O)CSSC[C@H](NC(=O)[C@@H](N)Cc2ccc(O)cc2)C(=O)N[C@@H](CCCCN)C(=O)N[C@@H](Cc2ccccc2)C(=O)N3)cc1	1.0
2) C[C@@H](O)[C@@H]1NC(=O)[C@H](CCCCN)NC(=O)[C@@H](Cc2c[nH]c3ccccc23)NC(=O)[C@H](Cc2ccccc2)NC(=O)[C@H](Cc2ccccc2)NC(=O)[C@H](CC(N)=O)NC(=O)[C@@H](N)CSSC[C@@H](C(=O)O)NC(=O)[C@H](Cc2ccccc2)NC1=O	1.0
3) C[C@@H](O)[C@@H]1NC(=O)[C@H](CCCCN)NC(=O)[C@@H](Cc2c[nH]c3ccccc23)NC(=O)[C@H](Cc2ccccc2)NC(=O)[C@H](Cc2ccccc2)NC(=O)[C@H](CCCCN)NC(=O)[C@@H](N)CSSC[C@@H](C(=O)O)NC(=O)[C@H](Cc2ccccc2)NC1=O	1.0
4) CC(C)NCc1ccc(C[C@@H]2NC(=O)[C@@H](Cc3c[nH]c4ccccc34)NC(=O)[C@H](Cc3ccccc3)NC(=O)[C@@H]3CCC(=O)NCCCC[C@H](NC(=O)[C@H]([C@@H](C)O)NC2=O)C(=O)N[C@@H]([C@@H](C)O)C(=O)N[C@@H](CO)C(=O)N[C@H](C(=O)O)CSSC[C@H](NC(=O)[C@@H](N)Cc2ccc(O)cc2)C(=O)N[C@@H](CCCCN)C(=O)N3)cc1	0.0
5) CC(C)NCc1ccc(C[C@@H]2NC(=O)[C@@H](Cc3c[nH]c4ccccc34)NC(=O)[C@@H]3CC(=O)NC[C@H](NC(=O)[C@H](Cc4ccccc4)NC(=O)[C@H]([C@@H](C)O)NC2=O)C(=O)N[C@@H](CO)C(=O)N[C@H](C(=O)O)CSSC[C@H](NC(=O)[C@@H](N)Cc2ccc(O)cc2)C(=O)N[C@@H](CCCCN)C(=O)N[C@@H](Cc2ccccc2)C(=O)N3)cc1	0.0
6) CC(C)NCc1ccc(C[C@@H]2NC(=O)[C@@H](Cc3c[nH]c4ccccc34)NC(=O)[C@@H]3CCC(=O)NCC[C@H](NC(=O)[C@H](Cc4ccccc4)NC(=O)[C@H]([C@@H](C)O)NC2=O)C(=O)N[C@@H](CO)C(=O)N[C@H](C(=O)O)CSSC[C@H](NC(=O)[C@@H](N)Cc2ccc(O)cc2)C(=O)N[C@@H](CCCCN)C(=O)N[C@@H](Cc2ccccc2)C(=O)N3)cc1	0.0

Now for a further compound.
(Q) Hi, just wondering whether `CC(C)NCc1ccc(C[C@@H]2NC(=O)[C@@H](Cc3c[nH]c4ccccc34)NC(=O)[C@@H]3CCC(=O)NCCCC(=O)NCCCC[C@H](NC(=O)[C@H](Cc4ccccc4)NC(=O)[C@H]([C@@H](C)O)NC2=O)C(=O)N[C@@H](CO)C(=O)N[C@H](C(=O)O)CSSC[C@H](NC(=O)[C@@H](N)Cc2ccc(O)cc2)C(=O)N[C@@H](CCCCN)C(=O)N[C@@H](Cc2ccccc2)C(=O)N3)cc1` shows pIC50 of 7 or higher.
(A) 0.0

---

Entries with reported IC50 on Somatostatin receptor type 5 (Homo sapiens, UniProt P35346)

Use the examples below as a reference point.
1) CC(C)NCc1ccc(C[C@@H]2NC(=O)[C@@H](Cc3c[nH]c4ccccc34)NC(=O)[C@@H]3CCC(=O)NCC[C@H](NC(=O)[C@H]([C@@H](C)O)NC2=O)C(=O)N[C@@H]([C@@H](C)O)C(=O)N[C@@H](CO)C(=O)N[C@H](C(=O)O)CSSC[C@H](NC(=O)[C@@H](N)Cc2ccc(O)cc2)C(=O)N[C@@H](CCCCN)C(=O)N[C@@H](Cc2ccccc2)C(=O)N3)cc1	> 1000 nM
2) CC(C)NCc1ccc(C[C@@H]2NC(=O)[C@@H](Cc3c[nH]c4ccccc34)NC(=O)[C@@H]3CCC(=O)NCCCC(=O)NCCCC[C@H](NC(=O)[C@H](Cc4ccccc4)NC(=O)[C@H]([C@@H](C)O)NC2=O)C(=O)N[C@@H](CO)C(=O)N[C@H](C(=O)O)CSSC[C@H](NC(=O)[C@@H](N)Cc2ccc(O)cc2)C(=O)N[C@@H](CCCCN)C(=O)N[C@@H](Cc2ccccc2)C(=O)N3)cc1	> 1000 nM

Consider the additional molecule presented here.
(Q) Would you kindly share the measured IC50 for `CC(C)NCc1ccc(C[C@@H]2NC(=O)[C@@H](Cc3c[nH]c4ccccc34)NC(=O)[C@@H]3CCC(=O)NCC(=O)NCC[C@H](NC(=O)[C@H](Cc4ccccc4)NC(=O)[C@H]([C@@H](C)O)NC2=O)C(=O)N[C@@H](CO)C(=O)N[C@H](C(=O)O)CSSC[C@H](NC(=O)[C@@H](N)Cc2ccc(O)cc2)C(=O)N[C@@H](CCCCN)C(=O)N[C@@H](Cc2ccccc2)C(=O)N3)cc1` ?
(A) > 1000 nM
